- Target under test: Huntingtin (Homo sapiens) (UniProt P42858)
- Sequence (P42858 whole entry, looked up, stated change not applied): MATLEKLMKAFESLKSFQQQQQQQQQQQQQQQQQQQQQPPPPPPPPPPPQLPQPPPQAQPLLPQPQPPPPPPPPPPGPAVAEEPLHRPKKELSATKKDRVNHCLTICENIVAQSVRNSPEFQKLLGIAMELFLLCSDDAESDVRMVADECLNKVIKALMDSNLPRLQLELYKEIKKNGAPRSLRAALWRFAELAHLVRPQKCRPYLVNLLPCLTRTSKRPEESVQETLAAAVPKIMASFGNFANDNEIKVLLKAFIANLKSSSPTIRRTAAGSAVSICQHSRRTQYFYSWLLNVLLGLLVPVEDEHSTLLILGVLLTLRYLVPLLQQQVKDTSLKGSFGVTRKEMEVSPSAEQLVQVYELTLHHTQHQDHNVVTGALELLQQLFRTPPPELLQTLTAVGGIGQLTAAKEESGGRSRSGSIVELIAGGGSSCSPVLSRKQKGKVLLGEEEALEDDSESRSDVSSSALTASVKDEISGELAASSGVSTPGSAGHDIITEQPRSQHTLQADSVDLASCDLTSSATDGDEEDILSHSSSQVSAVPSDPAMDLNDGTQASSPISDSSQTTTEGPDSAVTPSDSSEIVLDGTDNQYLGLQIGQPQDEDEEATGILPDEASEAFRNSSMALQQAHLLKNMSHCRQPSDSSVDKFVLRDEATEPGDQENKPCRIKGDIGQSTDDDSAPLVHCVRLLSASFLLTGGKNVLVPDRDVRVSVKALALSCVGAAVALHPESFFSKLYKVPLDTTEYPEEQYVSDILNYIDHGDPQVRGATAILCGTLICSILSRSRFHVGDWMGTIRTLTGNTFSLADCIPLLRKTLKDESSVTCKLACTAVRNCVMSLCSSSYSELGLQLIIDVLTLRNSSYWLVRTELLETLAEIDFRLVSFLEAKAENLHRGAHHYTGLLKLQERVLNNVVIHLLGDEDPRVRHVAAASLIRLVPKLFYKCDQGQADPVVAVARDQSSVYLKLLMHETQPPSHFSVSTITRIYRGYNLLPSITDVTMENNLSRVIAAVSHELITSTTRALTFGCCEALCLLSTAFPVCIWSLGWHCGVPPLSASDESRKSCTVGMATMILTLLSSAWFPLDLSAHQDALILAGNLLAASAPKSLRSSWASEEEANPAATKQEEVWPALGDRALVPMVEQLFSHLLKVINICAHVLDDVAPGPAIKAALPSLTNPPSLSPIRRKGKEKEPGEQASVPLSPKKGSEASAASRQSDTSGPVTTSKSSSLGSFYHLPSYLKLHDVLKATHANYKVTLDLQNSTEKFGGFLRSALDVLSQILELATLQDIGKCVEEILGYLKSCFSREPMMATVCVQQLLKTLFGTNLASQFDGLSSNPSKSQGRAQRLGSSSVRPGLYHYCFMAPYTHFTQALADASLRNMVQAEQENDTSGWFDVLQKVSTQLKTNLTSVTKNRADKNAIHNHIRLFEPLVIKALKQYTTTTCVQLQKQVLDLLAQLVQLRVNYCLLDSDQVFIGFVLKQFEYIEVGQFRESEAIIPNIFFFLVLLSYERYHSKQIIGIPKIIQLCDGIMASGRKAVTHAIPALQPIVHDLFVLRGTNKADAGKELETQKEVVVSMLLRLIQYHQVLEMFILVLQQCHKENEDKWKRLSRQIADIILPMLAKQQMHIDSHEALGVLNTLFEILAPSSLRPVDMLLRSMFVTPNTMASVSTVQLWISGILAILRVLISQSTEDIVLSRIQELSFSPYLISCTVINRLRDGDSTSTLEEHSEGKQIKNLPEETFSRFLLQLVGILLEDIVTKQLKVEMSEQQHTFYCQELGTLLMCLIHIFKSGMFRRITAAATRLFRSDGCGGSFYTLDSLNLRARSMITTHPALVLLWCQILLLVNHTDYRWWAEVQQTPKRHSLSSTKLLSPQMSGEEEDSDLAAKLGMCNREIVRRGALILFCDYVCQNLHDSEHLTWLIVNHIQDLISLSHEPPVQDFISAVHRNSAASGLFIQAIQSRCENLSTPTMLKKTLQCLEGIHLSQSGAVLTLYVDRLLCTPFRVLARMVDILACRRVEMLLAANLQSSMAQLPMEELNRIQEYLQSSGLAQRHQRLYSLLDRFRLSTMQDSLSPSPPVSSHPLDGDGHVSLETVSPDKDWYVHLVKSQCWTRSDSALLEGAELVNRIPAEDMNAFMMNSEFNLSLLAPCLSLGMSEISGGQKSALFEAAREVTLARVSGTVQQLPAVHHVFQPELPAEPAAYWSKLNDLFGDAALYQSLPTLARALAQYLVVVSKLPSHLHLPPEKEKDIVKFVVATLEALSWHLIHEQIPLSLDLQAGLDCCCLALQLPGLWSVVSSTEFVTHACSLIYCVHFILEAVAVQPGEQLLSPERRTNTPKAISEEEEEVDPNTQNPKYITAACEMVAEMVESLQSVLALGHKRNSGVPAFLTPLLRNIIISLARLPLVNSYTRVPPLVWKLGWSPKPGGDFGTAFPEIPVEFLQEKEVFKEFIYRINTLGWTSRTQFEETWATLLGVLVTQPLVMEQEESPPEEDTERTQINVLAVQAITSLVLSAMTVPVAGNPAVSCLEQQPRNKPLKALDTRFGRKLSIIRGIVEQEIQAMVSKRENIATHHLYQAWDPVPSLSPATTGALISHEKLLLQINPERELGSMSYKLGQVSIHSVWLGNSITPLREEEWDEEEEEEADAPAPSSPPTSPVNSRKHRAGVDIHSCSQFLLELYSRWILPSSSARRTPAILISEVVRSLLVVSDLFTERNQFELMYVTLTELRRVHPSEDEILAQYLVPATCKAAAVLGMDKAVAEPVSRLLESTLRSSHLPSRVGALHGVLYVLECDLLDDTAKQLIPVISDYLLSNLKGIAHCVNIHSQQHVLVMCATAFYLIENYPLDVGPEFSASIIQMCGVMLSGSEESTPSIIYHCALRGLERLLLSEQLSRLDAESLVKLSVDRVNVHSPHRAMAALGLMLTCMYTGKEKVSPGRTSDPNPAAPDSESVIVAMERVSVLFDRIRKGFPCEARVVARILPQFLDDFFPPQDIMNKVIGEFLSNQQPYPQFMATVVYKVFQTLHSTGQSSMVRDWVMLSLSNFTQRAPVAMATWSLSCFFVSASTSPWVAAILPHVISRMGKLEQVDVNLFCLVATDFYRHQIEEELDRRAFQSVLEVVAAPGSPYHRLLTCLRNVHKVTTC
- Test method notes: mutant huntingtin-calmodulin interaction inhibitors – biochemical, AlphaScreen, primary screen (AID 1671202);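 further: 0% = both proteins with DMSO and 100% = one protein alone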
- Run parameters: AlphaScreen His-mHTT/GST-CaM binding, luminescence; at 15 µM, stronger effect = higher value
The whole screen tested about 190,000 compounds, of which about 6,900 (3.6%) were called active. For the sample, actives were picked, then their nearest neighbours and some compounds at random.
Metric: inhibition (%)
Field format: number, assumed %, no unit text.

In the examples that follow, each entry is paired with its recorded inhibition.
| Compound | Measurement unit | inhibition |
| --- | --- | --- |
| O=C(c1cccc2c1CCN2C(=O)C1CC1)N1CCOCC1 | % | -4.9 |
| Nc1ncnc(NCc2cccc(Cl)c2)c1[N+](=O)[O-] | % | 3 |
| COc1cccc(CCC(=O)N2CCCN(c3ncccc3-c3nc(C4CC4)no3)CC2)c1 | % | -31.2 |
| CNC(=O)c1ccc2c(c1SC)C(=O)c1ccccc1C2=O | % | -3 |
| Cc1nnc2ccc(S(=O)(=O)N(Cc3ccccc3)c3ccc(F)cc3)cn12 | % | -2.4 |
| COc1ccc(-n2nc3c(c2NC(=O)c2cccc(OC)c2OC)CS(=O)C3)cc1 (stereo unspecified) | % | 5 |
| O=C1CC(c2ccc(Cl)cc2)CC2=C1C(c1ccsc1)Nc1ccccc1N2 (stereo unspecified) | % | 4 |
| COc1cc(CN2CCN(CCO)CC2)c([N+](=O)[O-])cc1OC | % | 1.8 |

# inhibition of COCC(=O)N1CCCC(c2ccnc(-c3ccccc3)n2)C1 (stereo unspecified) = -3.3

# inhibition of C=CCN1C=C(c2ccc3ccccc3n2)C(C#N)c2ccccc21 (stereo unspecified) = 15

# inhibition of "COc1cccc(CN2CCOCC2)c1OC" = -5.1
